# maps each entry to its pEC50
assaySystem: T1, human CD19 on CHO-K1-human CD19 cells (human, UniProt P15391 20-556)
T1 construct: whole, on cells; also called CHO-K1-human CD19-2C8
T1 sequence (looked up): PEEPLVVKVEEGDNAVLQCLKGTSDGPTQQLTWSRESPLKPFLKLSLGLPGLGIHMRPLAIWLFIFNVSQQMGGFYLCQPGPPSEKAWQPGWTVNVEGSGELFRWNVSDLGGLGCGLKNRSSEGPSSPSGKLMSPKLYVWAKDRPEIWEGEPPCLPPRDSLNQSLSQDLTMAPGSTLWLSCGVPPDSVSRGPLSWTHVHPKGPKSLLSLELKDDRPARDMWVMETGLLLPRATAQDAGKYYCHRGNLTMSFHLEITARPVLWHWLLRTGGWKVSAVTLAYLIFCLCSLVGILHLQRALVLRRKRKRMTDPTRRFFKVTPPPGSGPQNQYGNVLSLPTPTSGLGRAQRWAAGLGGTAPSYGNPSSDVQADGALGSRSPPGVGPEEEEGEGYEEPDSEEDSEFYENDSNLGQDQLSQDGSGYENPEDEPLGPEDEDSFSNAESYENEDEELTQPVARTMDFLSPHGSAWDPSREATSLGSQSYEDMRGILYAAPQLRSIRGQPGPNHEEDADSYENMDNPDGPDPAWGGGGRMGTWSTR
assayText: FACS on CHO-K1-human CD19 cells
Give only the number. pEC50 is defined as minus log10 of concentration in molar units.

F4.191.1 (antibody, human IgG1, V domains shown, human-murine chimeric antibody, human IgG1) VH: QVQLQQPGAELVRPGASVKLSCKASGYTFTSYWINWVKQRPGQGLEWIGNIHPSDSYTNYNQKFKDKATLTVDKSSSTAYMQFSSPTSEDSAVYYCTREDYYYGSNYDAMDYWGQGTSVTVSS VL: DIVMTQSHKFMSTSVGDRVNITCKASQDVGSSVAWYQQKPGQSPKLLIYWASTRHAGVPDRFTGSGSGADFTLTISNVQSEDLADYFCQQYSTYPLTFGAGTKLELK; 9.47

Now for another entry.
Indicate its recorded pEC50; the binder in question is F5.10.6 (antibody, human IgG1, V domains shown, human-murine chimeric antibody, human IgG1) VH: DVQLQESGPGLVKPSQSLSLTCSVTDYSITSGYYWTWIRQFPGNKLEWMGYISYDGSTNYNPSLKNRFSITRDTSKNQFFLKLNSVIIEDTATYYCARDRMSTTWYFDVWGTGTTVTVSS VL: DIVLTQSPASLAVSLGQRATISCRASESVDNYGISFMHWYQQKPGQPPKLLIYRASKTESGIPARFSGSGSRTDFTLTINPVETDDVATYYCQQSNKYPRTFGGGTKVEIK 8.59
